- System: Escherichia coli ATCC BAA-2469
- ASSAY DETAILS: percent growth inhibition of drug + antibiotic vs DMSO control; higher = more growth inhibition
- SETUP CONDITIONS: antibiotic (0.125x MIC): meropenem; 7 µM
// label = y if percent growth inhibition is not less than 10%, otherwise n

The examples below pair each entry with its known result.
INSERT INTO assay_data (compound, group) VALUES
  ('O=C(O)CN(CCN(CC(=O)O)CC(=O)O)CCN(CC(=O)O)CC(=O)O [Pentetic acid]', 'n'),
  ('Oc1c(I)cc(Cl)c2cccnc12 [Clioquinol]', 'n'),
  ('Nc1c2ccccc2nc2ccccc12 [Aminacrine]', 'y'),
  ('CO[C@H]1/C=C/O[C@@]2(C)Oc3c(C)c(O)c4c(c3C2=O)C2=NC3(CCN(CC(C)C)CC3)NC2=C(NC(=O)/C(C)=C\C=C\[C@H](C)[C@H](O)[C@@H](C)[C@@H](O)[C@@H](C)[C@H](OC(C)=O)[C@@H]1C)C4=O [Rifabutin]', 'y');

Attention now shifts to the item below.
Test whether the compound Nc1nc(F)nc2c1ncn2[C@@H]1O[C@H](CO)[C@@H](O)[C@@H]1O [Fludarabine] records percent growth inhibition of 10% or higher.
y

---

- Tested on: Escherichia coli ATCC BAA-2469
- ASSAY DETAILS: percent growth inhibition of drug + antibiotic vs DMSO control; higher = more growth inhibition
- SETUP CONDITIONS: antibiotic (0.125x MIC): gentamicin; 20 µM
Counter-ions that a name gives are not always drawn.
MEASURE: percent growth inhibition

Example cases with answers are listed next.
INSERT INTO assay_data (compound, result) VALUES
  ('C[C@H]1[C@H](NC(=O)/C(=N\OC(C)(C)C(=O)O)c2csc(N)n2)C(=O)N1S(=O)(=O)O', '81.2%'),
  ('Cc1cccc(C)c1NC(=O)C1CCCCN1C (configuration not stated) [Mepivacaine hydrochloride]', '1.04%'),
  ('O=C(N[C@H](CO)[C@H](O)c1ccc([N+](=O)[O-])cc1)C(Cl)Cl', '102%'),
  ('CO[C@H]1/C=C/O[C@@]2(C)Oc3c(C)c(O)c4c(c3C2=O)C2=NC3(CCN(CC(C)C)CC3)NC2=C(NC(=O)/C(C)=C\C=C\[C@H](C)[C@H](O)[C@@H](C)[C@@H](O)[C@@H](C)[C@H](OC(C)=O)[C@@H]1C)C4=O', '114%'),
  ('Oc1c(I)cc(Cl)c2cccnc12', '88.9%');

// returns reported percent growth inhibition for input "COC(=O)N/N=C/c1c[n+]([O-])c2ccccc2[n+]1[O-]"
85%

// returns reported percent growth inhibition for input Cc1c(OCC(F)(F)F)ccnc1C[S+]([O-])c1nc2ccccc2[nH]1 (configuration not stated)
12.5%

---

- System: Klebsiella pneumoniae NCTC-13439
- ASSAY DETAILS: percent growth inhibition of drug alone vs DMSO control; higher = more growth inhibition
- SETUP CONDITIONS: antibiotic (0.125x MIC): none (0.1% DMSO); 7 µM
Where a name gives a salt, the structure may show the parent alone.
# percent growth inhibition of drug alone annotations
The reply should be a number in %, with the unit left off.

Example cases with answers are listed next.
INSERT INTO assay_data (molecule, unit_annotation, quantitative_result) VALUES
  ('O=C(OCC(O)CO)c1ccccc1Nc1ccnc2cc(Cl)ccc12 (centres undefined) [Glafenine hydrochloride]', '%', -9.8),
  ('CCN1CCN(c2cc3c(cc2F)c(=O)c(C(=O)O)cn3C2CC2)CC1', '%', 3.46);

// returns reported percent growth inhibition of drug alone for input CN[C@@H]1[C@@H](O[C@H]2O[C@H](CO)[C@@H](N)[C@H](O)[C@H]2O)OC2C[C@@H](N)[C@@H](O[C@H]3[C@H](O)[C@@H](O)[C@H](N)C[C@@H]3N)OC2[C@@H]1O (some centres undefined)
4.78

// returns reported percent growth inhibition of drug alone for input NC1CCN(c2nc3c(cc2F)c(=O)c(C(=O)O)cn3-c2ccc(F)cc2F)C1 (centres undefined) [Tosufloxacin hydrochloride]
56.5

// returns reported percent growth inhibition of drug alone for input OCCOCCN1CCN(C2=Nc3ccccc3Sc3ccccc32)CC1 [Quetiapine hemifumarate]
-15.6

// returns reported percent growth inhibition of drug alone for input "N=C(NCCCCCCNC(=N)NC(=N)Nc1ccc(Cl)cc1)NC(=N)Nc1ccc(Cl)cc1"
2.54

// returns reported percent growth inhibition of drug alone for input C#C[C@]1(OC(C)=O)CC[C@H]2[C@@H]3CCC4=CC(=NO)CC[C@@H]4[C@H]3CC[C@@]21CC (mixture of isomers) [Norgestimate]
-4.1

// returns reported percent growth inhibition of drug alone for input "NC(=O)N/N=C/c1ccc([N+](=O)[O-])o1"
-7.28

// returns reported percent growth inhibition of drug alone for input C[C@H](N)[C@H](O)c1cccc(O)c1 [Metaraminol bitartrate]
-7.73

// returns reported percent growth inhibition of drug alone for input Cc1c(F)c(N2CCNC(C)C2)cc2c1c(=O)c(C(=O)O)cn2C1CC1 (centres undefined)
13

// returns reported percent growth inhibition of drug alone for input "O=C(O)c1cn(-c2ccc(F)cc2)c2cc(N3CCNCC3)c(F)cc2c1=O"
19.6

// returns reported percent growth inhibition of drug alone for input NC[C@@H]1O[C@H](O[C@H]2[C@@H](O)[C@H](O[C@@H]3[C@@H](O)[C@H](N)C[C@H](N)[C@H]3O[C@H]3O[C@H](CO)[C@@H](O)[C@H](O)[C@H]3N)O[C@@H]2CO)[C@H](N)[C@@H](O)[C@@H]1O [Paromomycin sulfate]
11.4

// returns reported percent growth inhibition of drug alone for input COc1ccc(OC)c(C(O)CNC(=O)CN)c1 (centres undefined) [Midodrine hydrochloride]
-12.1

// returns reported percent growth inhibition of drug alone for input "Cc1nc2n(c(=O)c1CCN1CCC(c3noc4cc(F)ccc34)CC1)CCCC2"
-5.2

Where do the numbers come from? From the supplement of paper PMC6658780.
